Target: streptavidin (Streptomyces avidinii)
Sequence (P22629 25-183): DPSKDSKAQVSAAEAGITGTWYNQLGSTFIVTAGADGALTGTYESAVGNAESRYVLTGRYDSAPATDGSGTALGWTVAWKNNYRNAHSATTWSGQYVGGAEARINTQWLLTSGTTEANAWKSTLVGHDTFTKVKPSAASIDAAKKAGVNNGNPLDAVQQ
Assay: biochemical
pKd: −log10 of the molar value. No end group written: not given here.
Observed Property: pKd

Challenge: Find pKd (streptavidin (Streptomyces avidinii)) for the entry MLSENWLTNHPQN [SB33N]
Response given: ~4.00

###

Conditions: substrate Unipure Red particle; biotinylated peptide, streptavidin-HRP ELISA
Observed Property: MB50 (µM)
Answers are plain numbers, in µM.

[
  {
    "Substance": "THSTHNHGSPRHTNADAGNPK-Biotin [HCP1]",
    "MB50 [µM]": 9.8
  },
  {
    "Substance": "HINKTNPHQGNHHSEKTQRQK-Biotin [MEA4]",
    "MB50 [µM]": 8.7
  },
  {
    "Substance": "TPPELAHTPHHLAQTRLTDRK-Biotin [Hair4]",
    "MB50 [µM]": 5
  }
]

Challenge: State the recorded MB50 for this entry: AQSQLPDKHSGLHERAPQRYK-Biotin [Hair2]
Response given: 6.8
